Data credit: paper PMC5800995

# tested on: human D2LR E95^2.65A (Homo sapiens, UniProt P14416, E95A)
# Sequence (P14416 whole entry E95A): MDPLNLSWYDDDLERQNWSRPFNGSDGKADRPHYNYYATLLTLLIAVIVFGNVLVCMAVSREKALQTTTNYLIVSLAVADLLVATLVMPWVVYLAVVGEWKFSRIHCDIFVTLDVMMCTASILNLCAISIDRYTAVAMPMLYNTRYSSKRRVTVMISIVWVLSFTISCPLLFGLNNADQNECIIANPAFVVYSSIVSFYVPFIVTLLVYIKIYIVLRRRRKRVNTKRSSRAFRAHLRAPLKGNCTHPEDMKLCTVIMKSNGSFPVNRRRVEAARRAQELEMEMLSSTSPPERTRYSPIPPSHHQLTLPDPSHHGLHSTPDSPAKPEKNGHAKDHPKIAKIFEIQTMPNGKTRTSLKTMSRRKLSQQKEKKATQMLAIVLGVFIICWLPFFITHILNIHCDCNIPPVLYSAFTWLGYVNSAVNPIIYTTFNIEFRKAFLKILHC
# assay procedure: ERK1/2 phosphorylation, E95^2.65A
# Type: cell-based
# experimental context: read-out: KB Function (pERK1/2)
reported endpoint: Kb (µM)
State just the number; it will be interpreted in µM.

Value of Kb reported for the compound `O=C(N[C@H]1CC[C@H](CCN2CCc3ccccc3C2)CC1)c1cc2ccccc2[nH]1` is 61.7

Value of Kb reported for the compound N#Cc1ccc2c(c1)CN(CCC1CCC(NC(=O)c3ccc[nH]3)CC1)CC2 (stereo not shown) is 0.095

Value of Kb reported for the compound N#Cc1ccc2c(c1)CN(CCC1CCC(NC(=O)c3nc4ccccc4o3)CC1)CC2 (stereo not shown) is 1.2

Value of Kb reported for the compound N#Cc1ccc2c(c1)CN(CCC1CCC(NC(=O)c3cc4cccnc4[nH]3)CC1)CC2 (stereo not shown) is 1.26
